Each recorded value in this set is attributed to ChEMBL document CHEMBL4184225.

Assay: Metabolic stability in mouse liver microsomes assessed as drug metabolism after 15 mins at 1 uM
Assay type: ADME, microsome
Details: read-out: Drug metabolism
Quantity name: metabolised at 0.25 h, 1 µM (%)

CCCCNc1nc(N)nc2cccc(OCc3ccccn3)c12    99
CCCCNc1nc(N)nc2cccc(OCc3ccccc3)c12    97
CCCCNc1nc(N)nc2cccc(OCc3cccnc3)c12    99
CCCCNc1nc(N)nc2cccc(C)c12    100
CCCCNc1nc(N)nc2cccc(C(=O)NC)c12    90
CCCCNc1nc(N)nc2cccc(OCc3nccc(OC)c3OC)c12    98
CCCCNc1nc(N)nc2cccc(OCc3ccc(CO)cc3OC)c12    98
CCCCNc1nc(N)nc2cccc(CCc3ccccc3)c12    97

* * *

# Cytochrome P450 3A4 (Homo sapiens): IC50 values follow
# Sequence (P08684 whole entry): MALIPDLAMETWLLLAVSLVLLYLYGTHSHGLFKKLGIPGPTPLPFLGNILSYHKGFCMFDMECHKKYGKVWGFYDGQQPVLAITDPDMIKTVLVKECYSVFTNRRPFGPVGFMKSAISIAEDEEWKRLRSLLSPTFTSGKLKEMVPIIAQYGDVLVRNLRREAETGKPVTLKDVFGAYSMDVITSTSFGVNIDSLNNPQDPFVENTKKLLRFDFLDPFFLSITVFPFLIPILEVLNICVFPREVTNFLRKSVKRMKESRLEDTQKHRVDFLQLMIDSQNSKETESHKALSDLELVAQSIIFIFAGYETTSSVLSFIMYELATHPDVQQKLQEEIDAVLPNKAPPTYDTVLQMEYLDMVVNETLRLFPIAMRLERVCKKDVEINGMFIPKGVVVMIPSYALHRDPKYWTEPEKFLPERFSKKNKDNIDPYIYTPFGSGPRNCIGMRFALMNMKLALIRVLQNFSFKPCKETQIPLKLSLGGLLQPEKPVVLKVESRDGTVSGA
Quantity name: IC50

CCCCNc1nc(N)nc2cccc(C(=O)N[C@@H](C)c3ccccc3)c12    > 10 µM
CCCCNc1nc(N)nc2cccc(OCc3ccccn3)c12    > 10 µM
CCCCNc1nc(N)nc2cccc(C(=O)NCc3ccccc3)c12    > 10 µM
CCCCNc1nc(N)nc2cccc(C(=O)NC(C)C)c12    > 10 µM
CCCCNc1nc(N)nc2cccc(OCc3ccc(CO)cc3OC)c12    > 10 µM
CCCCNc1nc(N)nc2cccc(C(=O)N[C@H](C)c3ccccc3)c12    > 10 µM
CCCCNc1nc(N)nc2cccc(C(=O)NC)c12    > 10 µM
CCCCNc1nc(N)nc2cccc(OCc3ccccc3OC)c12    > 10 µM
CCCCNc1nc(N)nc2cccc(OCc3nccc(OC)c3OC)c12    9.9 µM
CCCCNc1nc(N)nc2cccc(C(=O)N(C)Cc3ccccc3)c12    8.5 µM
CCCCNc1nc(N)nc2cccc(OCc3cccnc3)c12    6.7 µM

* * *

Biological target: UniProtKB Q9NR97
Sequence (Q9NR97 whole entry): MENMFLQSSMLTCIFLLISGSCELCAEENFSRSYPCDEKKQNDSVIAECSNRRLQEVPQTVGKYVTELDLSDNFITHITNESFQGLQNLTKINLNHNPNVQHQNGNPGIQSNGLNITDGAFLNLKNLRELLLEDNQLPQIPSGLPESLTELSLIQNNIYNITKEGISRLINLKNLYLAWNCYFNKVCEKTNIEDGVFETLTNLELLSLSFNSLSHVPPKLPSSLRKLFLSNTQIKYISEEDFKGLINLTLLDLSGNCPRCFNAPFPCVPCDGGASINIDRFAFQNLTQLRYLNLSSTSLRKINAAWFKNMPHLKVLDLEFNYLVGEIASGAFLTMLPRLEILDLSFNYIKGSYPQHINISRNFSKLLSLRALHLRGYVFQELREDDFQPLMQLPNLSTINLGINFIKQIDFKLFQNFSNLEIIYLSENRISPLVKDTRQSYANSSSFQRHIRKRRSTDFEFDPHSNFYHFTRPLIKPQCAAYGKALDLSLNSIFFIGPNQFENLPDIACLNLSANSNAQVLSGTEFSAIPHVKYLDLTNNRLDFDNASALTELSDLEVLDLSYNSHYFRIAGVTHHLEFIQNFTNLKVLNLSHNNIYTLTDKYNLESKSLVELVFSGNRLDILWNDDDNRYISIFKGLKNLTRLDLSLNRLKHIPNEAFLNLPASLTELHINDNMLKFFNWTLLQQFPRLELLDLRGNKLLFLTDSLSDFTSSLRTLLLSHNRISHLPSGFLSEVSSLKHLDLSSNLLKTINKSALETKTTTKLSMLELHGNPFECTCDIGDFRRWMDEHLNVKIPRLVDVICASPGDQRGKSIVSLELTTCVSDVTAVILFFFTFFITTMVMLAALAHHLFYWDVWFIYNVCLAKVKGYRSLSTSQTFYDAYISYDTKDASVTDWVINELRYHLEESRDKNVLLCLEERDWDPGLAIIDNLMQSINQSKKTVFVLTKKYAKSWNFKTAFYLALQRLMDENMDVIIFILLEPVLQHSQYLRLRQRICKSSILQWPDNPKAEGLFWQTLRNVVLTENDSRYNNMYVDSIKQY
Test: Agonist activity at human TLR8 expressed in HEK293 cells assessed as induction of receptor activation incubated for 6 hrs by NF-kappaB-luciferase reporter gene assay
Type: cell-based
Conditions: hek293, 6 h
Quantity name: MEC (µM)

CCCCNc1nc(N)nc2cccc(C(=O)NC)c12    0.39
CCCC(C)Nc1nc(N)nc2ccccc12 (configuration not stated)    0.17
CCCCNc1nc(N)nc2c(F)cccc12    0.3
CCCCNc1nc(N)nc2ccc(F)cc12    0.1
CCCCNc1nc(N)ncc1OCC    1.1

* * *

Target: Cytochrome P450 2D6 (Homo sapiens, UniProt P10635)
Sequence (P10635 whole entry): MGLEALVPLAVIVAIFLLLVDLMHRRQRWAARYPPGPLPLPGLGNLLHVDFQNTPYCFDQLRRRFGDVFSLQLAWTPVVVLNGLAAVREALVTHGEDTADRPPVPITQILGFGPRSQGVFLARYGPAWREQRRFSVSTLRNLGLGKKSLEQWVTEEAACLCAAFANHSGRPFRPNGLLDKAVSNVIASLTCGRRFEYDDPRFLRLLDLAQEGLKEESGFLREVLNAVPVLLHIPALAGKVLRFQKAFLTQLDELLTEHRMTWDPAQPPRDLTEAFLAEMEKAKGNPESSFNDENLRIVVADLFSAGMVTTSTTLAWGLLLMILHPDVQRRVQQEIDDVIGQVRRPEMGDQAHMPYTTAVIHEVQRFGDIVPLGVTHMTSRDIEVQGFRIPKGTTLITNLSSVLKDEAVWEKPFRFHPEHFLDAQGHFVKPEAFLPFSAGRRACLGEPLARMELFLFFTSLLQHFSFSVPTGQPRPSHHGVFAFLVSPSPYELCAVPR
Quantity name: IC50

CCCCNc1nc(N)nc2cccc(OCc3cccnc3)c12    > 10 µM
CCCCNc1nc(N)nc2cccc(C(=O)NCc3ccccc3)c12    6.6 µM
CCCCNc1nc(N)nc2cccc(OCc3ccccc3)c12    5.7 µM
CCCCNc1nc(N)nc2cccc(C(=O)N[C@@H](C)c3ccccc3)c12    > 10 µM
CCCCNc1nc(N)nc2cccc(OCc3ccccc3OC)c12    > 10 µM
CCCCNc1nc(N)nc2cccc(C(=O)N(C)Cc3ccccc3)c12    5.6 µM
CCCCNc1nc(N)nc2cccc(OCc3ccc(CO)cc3OC)c12    4.4 µM
CCCCNc1nc(N)nc2cccc(C(=O)NC)c12    > 10 µM
CCCCNc1nc(N)nc2cccc(OCc3nccc(OC)c3OC)c12    > 10 µM
CCCCNc1nc(N)nc2cccc(C(=O)NC(C)C)c12    > 10 µM
CCCCNc1nc(N)nc2cccc(C(=O)N[C@H](C)c3ccccc3)c12    > 10 µM
CCCCNc1nc(N)nc2cccc(OCc3ccccn3)c12    > 10 µM

* * *

Test: AUClast in C57BL/6 mouse liver at 1 mg/kg, po administered as single dose
Format: ADME, organism-based
Set-up: dose 1 mg/kg, time 0 - last, route oral
Quantity name: AUC(0-t)

CCCCNc1nc(N)nc2ccccc12    133 ng·h/mL

* * *

Molecular target: Toll-like receptor 7 (Homo sapiens) (UniProt Q9NYK1)
Sequence (Q9NYK1 whole entry): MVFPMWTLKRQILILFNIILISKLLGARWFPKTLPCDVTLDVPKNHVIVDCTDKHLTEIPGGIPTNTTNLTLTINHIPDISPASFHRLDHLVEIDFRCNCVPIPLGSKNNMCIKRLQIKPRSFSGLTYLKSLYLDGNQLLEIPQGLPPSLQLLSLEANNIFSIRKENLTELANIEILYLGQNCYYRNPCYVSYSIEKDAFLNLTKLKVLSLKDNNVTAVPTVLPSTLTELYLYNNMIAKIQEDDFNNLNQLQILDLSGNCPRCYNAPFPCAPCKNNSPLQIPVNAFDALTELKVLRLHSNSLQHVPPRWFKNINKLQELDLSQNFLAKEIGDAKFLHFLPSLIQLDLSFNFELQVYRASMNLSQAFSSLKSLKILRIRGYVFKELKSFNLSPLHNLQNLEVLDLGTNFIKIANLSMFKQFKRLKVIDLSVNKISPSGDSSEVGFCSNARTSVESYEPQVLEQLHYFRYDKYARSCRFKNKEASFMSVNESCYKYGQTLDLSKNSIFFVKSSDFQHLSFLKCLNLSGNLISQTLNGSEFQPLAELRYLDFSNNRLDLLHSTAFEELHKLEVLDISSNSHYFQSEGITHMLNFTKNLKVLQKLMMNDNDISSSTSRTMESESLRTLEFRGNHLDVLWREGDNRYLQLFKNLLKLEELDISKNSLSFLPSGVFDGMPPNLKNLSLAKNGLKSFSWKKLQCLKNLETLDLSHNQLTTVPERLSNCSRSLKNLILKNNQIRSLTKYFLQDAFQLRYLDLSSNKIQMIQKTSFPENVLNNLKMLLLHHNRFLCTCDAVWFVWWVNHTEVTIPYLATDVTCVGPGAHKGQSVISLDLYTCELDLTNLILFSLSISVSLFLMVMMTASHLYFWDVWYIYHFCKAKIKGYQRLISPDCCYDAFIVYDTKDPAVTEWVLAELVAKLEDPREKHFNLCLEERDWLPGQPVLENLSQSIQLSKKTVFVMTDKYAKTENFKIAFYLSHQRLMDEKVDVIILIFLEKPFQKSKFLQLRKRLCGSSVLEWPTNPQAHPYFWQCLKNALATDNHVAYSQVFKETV
Test: Agonist activity at TLR7 in human PBMC assessed as suppression of HCV replicon replication in human HuH7 luc/neo cells harboring RNA encoding bicistronic expression construct comprising wild type HCV type 1b NS3-NS5B regions exposed to conditioned media from compound treated PBMCs by luciferase reporter gene assay
Format: cell-based
Listing: log10 MEC of selected compounds
Quantity name: log10 MEC (log10 of the value in µM)

CCCCNc1nc(N)nc2cccc(C(=O)N[C@@H](C)c3ccccc3OC)c12    -0.85
CCCCNc1nc(N)nc2cccc(CCc3ccccc3)c12    -0.57
CCCCNc1nc(N)nc2cc(CN(C)C)ccc12    -1.40
CCCCNc1nc(N)nc2ccc(CO)cc12    -0.85
CCCCNc1nc(N)nc2ccc(F)cc12    -0.96
CCCCNc1nc(N)nc2cccc(C(=O)N[C@@H](C)c3cccc(OC)c3)c12    -0.30
CCCCNc1nc(N)nc2cccc(C(=O)N(C)C(C)C)c12    0.28
CCCCNc1nc(N)nc2cccc(C(=O)NC)c12    -0.82
CCCCNc1nc(N)nc2cc(C(=O)N(C)C)ccc12    -1.22
CCCCNc1nc(N)nc2cc(C(N)=O)ccc12    -0.82
CCCCNc1nc(N)nc2cccc(OCCOC)c12    -0.92
CCCCNc1nc(N)nc2cccc(C)c12    -0.49

* * *

Assay: Cmax in Sprague-Dawley rat plasma at 10 mg/kg, po
Assay type: ADME, organism-based
Set-up: dose 10 mg/kg, route oral
Quantity name: Cmax (ng/mL)

CCCCNc1nc(N)nc2ccccc12    33
CCCCNc1nc(N)nc2cccc(C(=O)N(C)Cc3ccccc3)c12    9
CCCCNc1nc(N)nc2cccc(C(=O)N[C@@H](C)c3ccccc3)c12    87

* * *

Assay: Metabolic stability in human liver microsomes assessed as drug metabolism after 15 mins at 1 uM
Format: ADME, microsome
Settings: read-out: Drug metabolism
Listing: metabolised at 0.25 h, 1 µM of selected compounds
Quantity name: metabolised at 0.25 h, 1 µM (%)

CCCCNc1nc(N)nc2cccc(C(=O)N[C@@H](C)c3cccc(OC)c3)c12    97
CCCCNc1nc(N)nc2cccc(C(=O)N[C@@H](C)c3ccccc3OC)c12    99
CCCCNc1nc(N)nc2cccc(C(=O)NCc3ccccc3)c12    28
CCCCNc1nc(N)nc2ccccc12    90
CCCCNc1nc(N)nc2cccc(C)c12    96
CCCCNc1nc(N)nc2cccc(CCc3ccccc3)c12    24
CCCCNc1nc(N)nc2cccc(C(=O)N[C@H](C)c3ccccc3)c12    32
CCCCNc1nc(N)nc2cccc(OC)c12    98
